PROTOCOL: Human HepG2 cell viability assay in 384 well format
Type: toxicity, cell-based
Design: dose 125 nL, time 70.5 hour; concentration not given beside the values
CONDITIONS_USED: HepG2 cells, read-out: Inhibition
What cytotoxicity at 70.5 h was measured for each of the following?
One number for each entry, in %.

Example cases with answers are listed next.
Cc1cc(CN2CCc3cncnc3C2)no1	-8.98
CCC1CCCCN1Cc1ncc(C(C)(C)C)o1 (configuration not stated)	-7.2
Cc1ccc(C(N)c2cccc(S(C)(=O)=O)c2)c(C)c1 (configuration not stated)	-7.42
Cc1ccc(N2CCC3(CCC(=O)N3)CC2)nn1	-10
COCc1cc(N(C)Cc2ncnn2C)nc(C(C)(C)C)n1	-10.6
CCN1C(=O)C(c2ccccc2)CC12CCN(c1ncccn1)CC2 (configuration not stated)	-18.6
CN(Cc1ccsc1)C(=O)COC(=O)c1cc(Cl)c[nH]1	-2.89
CC(Nc1cccc2c1OCCO2)C(=O)Nc1ccc(Cl)cc1 (configuration not stated)	2.81

Batch lookup, cytotoxicity at 70.5 h per entry.
1. Cn1ccnc1C(=O)N1CCCC(Cn2cc(CO)nn2)C1 (configuration not stated)
2. CCc1[nH]c(C2(N)CCCC2)nc(=O)c1C
3. CCc1ccc(CN2CCOC(Cc3cccc(F)c3)C2)nc1 (configuration not stated)
4. Cc1nc(NCCSc2nnc(C)s2)c2cccnc2n1

[-1.24, 19.5, -5.34, -14.5]

* * *

PROTOCOL: Human HepG2 cell viability assay in 384 well format
Format: toxicity, cell-based
Design: dose 125 nL, time 70.5 hour; concentration not given beside the values
CONDITIONS_USED: HepG2 cells, read-out: Inhibition
MEASUREMENT_TYPE: cytotoxicity at 70.5 h (%)
Give bare numbers, in %.

Example cases with answers are listed next.
CN(Cc1cc(Br)c2c(c1)OCO2)Cc1cscn1	-14.1
CNC(=O)C1(c2cnccn2)CCCN1C(=O)c1ccccc1F (centres undefined)	-3.62
COc1ccc(C2CC(=O)Nc3c2cnn3C)cc1 (centres undefined)	4.68
Cc1ccc(CN2CCN(C3CCSCC3)CC2CCO)o1 (centres undefined)	-0.539
O=S(=O)(CC1CCCN1S(=O)(=O)C1CC1)c1ccccc1 (centres undefined)	-6.46
CC(C)(C)C(CCO)NC(=O)Nc1ccccc1 (centres undefined)	-9.49

Batch lookup, cytotoxicity at 70.5 h per entry.
1. CCc1cc(N2C[C@H](C3CC3)[C@@H](N)C2)nc(N2CCOCC2)n1
2. CC(C)(C)NC(=O)c1cnc(C(C)(C)C)s1
3. O=C(c1ccnc(C2CCNCC2)c1)N1CCCOCC1

-5.91
3.79
-1.42

Batch lookup, cytotoxicity at 70.5 h per entry.
1. CC1=Nc2c(c(=O)[nH]n2C2CCOCC2)C(c2cccc(O)c2)S1 (centres undefined)
2. CN1CC(c2ccccc2)CC12CCN(C(=O)c1cncc(Cl)c1)CC2 (centres undefined)
3. Cc1nnc(N2CCOC(Cn3cccn3)C2)c(C#N)c1C (centres undefined)
4. CC(CN1CCOCC1)n1cncc1-c1ccc2c(c1)CCCN2C (centres undefined)
5. O=C(c1cn(CCN2CCCCC2)nn1)N1CCCO1

-7.06
-8.59
-8.57
-10.1
-6.13

Batch lookup, cytotoxicity at 70.5 h per entry.
1. CCCN1CC2(CCN(C)CC2)CC1C(=O)NCCn1ccc(C)n1 (centres undefined)
2. Cn1cc(C[C@H]2[C@H](O)CCN2Cc2ccncc2)cn1
3. Cc1nc(CC(=O)N2CCCC2c2nc(-c3ccccc3)no2)cs1 (centres undefined)
4. Cc1c(CN2CCc3nc4sccc4c(=O)n3CC2)cnn1C
5. CCn1cc(C(=O)NCC2(C(N)=O)CCOCC2)c2ccccc21

[-1.37, -5.7, -3.06, -6.65, 0.306]

* * *

What cytotoxicity at 70.5 h was measured for each of the following?
PROTOCOL: Human HepG2 cell viability assay in 384 well format
Format: toxicity, cell-based
Set-up: dose 125 nL, time 70.5 hour; concentration not given beside the values
CONDITIONS_USED: HepG2 cells, read-out: Inhibition
One number for each entry, in %.

Example cases with answers are listed next.
Fc1ccc(CN2CCC(F)(F)C3(CCN(c4cnccn4)C3)C2)cc1 (stereo not drawn)	-9.88
O=C(Nc1nncs1)NC1CCc2ccccc21 (stereo not drawn)	-8.87

For this molecule ( COc1cccc2c1ccn2CC(=O)N[C@@H](CCSC)C(=O)O ), measured cytotoxicity at 70.5 h is -3.11

* * *

What cytotoxicity at 70.5 h was measured for each of the following?
PROTOCOL: Human HepG2 cell viability assay in 384 well format
Format: toxicity, cell-based
Parameters: dose 125 nL, time 70.5 hour; concentration not given beside the values
CONDITIONS_USED: HepG2 cells, read-out: Inhibition
Answers are plain numbers, in %.

Example cases with answers are listed next.
CC(C)Oc1cccc(CNC(=O)NC2(CO)CCCC2)c1	-11.2
COc1cccc(O)c1CN1CCCC(Nc2cccc(F)c2)C1 (stereo not given)	0.789
O=C(O)c1cnc(N2CCC(c3nccn3CC3CC3)CC2)c(Cl)c1	-8.03

Batch lookup, cytotoxicity at 70.5 h per entry.
1. c1ccc(C2(CNCc3cnc(N4CCOCC4)nc3)CC2)cc1
2. Cn1cc(CN2CC[C@@H]3[C@@H]2CCN3Cc2ccc3c(c2)OCO3)cn1
3. O=C(NCC(O)COc1ccccc1)C1(c2ccc(F)cc2)CC1 (stereo not given)
4. COc1ccc(C2=NOC(C(=O)N3CCCc4ccccc43)C2)cc1 (stereo not given)

1: -8.71; 2: -3; 3: -10.3; 4: 8.49

Batch lookup, cytotoxicity at 70.5 h per entry.
1. Cc1ccccc1SCC(=O)Nn1cnnc1
2. Cc1cccc(CN2CCS(=O)(=O)[C@@H]3CCN(S(C)(=O)=O)CC[C@@H]32)n1
3. CN(Cc1nc2c(cnn2C)c(=O)[nH]1)Cc1ccc(F)cc1F

-9.7
17.2
-10.6

Batch lookup, cytotoxicity at 70.5 h per entry.
1. CCCn1nnnc1COc1ccc(C(=O)OC)cc1OC
2. CC(CC#N)N(C)Cc1ccccc1Cl (stereo not given)
3. CCCc1cc(NCCN2CCNC2=O)n2nccc2n1
4. CCCS(=O)(=O)NC(=O)c1ccc(CC)o1

1: -16.9; 2: -7.77; 3: -11.5; 4: 2.47

Batch lookup, cytotoxicity at 70.5 h per entry.
1. Cc1nnc(NCc2cccnc2OCC(F)(F)F)c(C#N)c1C
2. COCCN1CCC(CN(C)c2ncnc3c2c(C)nn3C)C1 (stereo not given)
3. Cc1cnccc1CN1CC[C@@](C)(O)[C@H](Oc2cccc(F)c2)C1
4. NC(=O)NCC1CCCCN1C(=O)c1ccc(Br)s1 (stereo not given)

[-0.691, 6.13, -1.49, -8.99]

* * *

PROTOCOL: Human HepG2 cell viability assay in 384 well format
Format: toxicity, cell-based
Set-up: dose 125 nL, time 70.5 hour; concentration not given beside the values
CONDITIONS_USED: HepG2 cells, read-out: Inhibition
MEASUREMENT_TYPE: cytotoxicity at 70.5 h
Units required after the number.

Example cases with answers are listed next.
CCn1cc(NC(=O)c2c(C)nn(C)c2C)c(C(N)=O)n1	19%
COc1ccc(CN2CCOC[C@H]2c2nc(-c3ccncc3)c[nH]2)cc1	-1.1%
Cc1nc(N2CCCN(C(=O)c3ccsc3)CC2)c2cnn(C)c2n1	-2.94%
CCc1cc(N2CCC(NC(=O)CCC3CCCO3)CC2)ncn1 (configuration not stated)	25.3%
CCn1cc(CNC2CCN(c3cccc(C)c3C)CC2)cn1	-6.01%

Batch lookup, cytotoxicity at 70.5 h per entry.
1. FC(F)(F)c1cccc(OC2CCN(Cc3ccccn3)CC2)c1
2. CC(C)OCc1ccc(CNC(=O)NC2(CO)CCCC2)cc1

-0.484%
-10.3%

* * *

What cytotoxicity at 70.5 h was measured for each of the following?
PROTOCOL: Human HepG2 cell viability assay in 384 well format
Format: toxicity, cell-based
Set-up: dose 125 nL, time 70.5 hour; concentration not given beside the values
CONDITIONS_USED: HepG2 cells, read-out: Inhibition
Give bare numbers, in %.

Example cases with answers are listed next.
OC(COCc1ccccc1)CN1CCC(Cn2cccn2)CC1 (configuration not stated)	-22.4
CN1CCCc2ccc(S(=O)(=O)NC(=O)C3CC=CC3)cc21	-3.77
COc1ccccc1C(=O)N1CCCC1Cn1cc(C)cn1 (configuration not stated)	-14.4

Batch lookup, cytotoxicity at 70.5 h per entry.
1. CNC(=O)Cc1noc(-c2cc3c(s2)CCC(C)(C)C3)n1
2. O=C(C1CC(=O)N(C2CC2)C1)N1CCN(CCn2cccc2)CC1 (configuration not stated)
3. CN(Cc1cc2cc(F)ccc2[nH]1)C(=O)C1CC(=O)N(C2CCCC2)C1 (configuration not stated)
4. Cc1occc1C(=O)N1CCO[C@H]2[C@@H](Oc3ccccn3)CC[C@@H]21
5. Cc1nc(NC2CCCC2)cc(C2CCN2C(=O)c2ccccn2)n1 (configuration not stated)
6. COc1cc(C(=O)N(C)C)ccc1NC(=O)c1ccsc1
7. CN(CC(=O)N1CC(Oc2ccccc2Cl)C1)Cc1ccncc1

-3.09
-1.53
-4.53
4.46
-4.92
1.32
12.8

Batch lookup, cytotoxicity at 70.5 h per entry.
1. CCn1c(CC2CCN(C(=O)C3CCOC3)CC2)nn(C)c1=O (configuration not stated)
2. C1CCC(CNC2CCSCC2)(N2CCOCC2)CC1
3. Cc1cccc(CN2CCc3onc(CO)c3C2)n1
4. COC(=O)N1CCC(NC2CCSCC2)C1 (configuration not stated)
5. Cc1cnn(CC2CCCCN2C(=O)c2ccc3nnc(C)n3c2)c1 (configuration not stated)
6. Cc1ncsc1C(=O)NCCNC(=O)OC(C)(C)C

[32.2, 3.74, 5.71, 0.96, -10.9, -2.69]
